Hey, just so you know, these numbers are from paper PMC10663500.

- target_system: T1, human programmed cell death protein 1 (hPD-1) C93S (aa 24-167) (Homo sapiens, UniProt Q15116, C93S)
- T1 construct: made as a fusion with a TEV site and human Fc; the Fc was cut off with TEV protease; source: Expi293F, purified (Protein A, TEV cleavage of Fc, SEC; monomer fractions); not shown: Fc (human), C-terminal, cleaved
- T1 sequence (Q15116 24-167 C93S): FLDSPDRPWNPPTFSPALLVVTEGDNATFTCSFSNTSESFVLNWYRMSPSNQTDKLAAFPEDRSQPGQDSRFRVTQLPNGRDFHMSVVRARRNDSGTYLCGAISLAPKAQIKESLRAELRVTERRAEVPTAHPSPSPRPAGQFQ
- test_name: SPR; Carterra LSA; Fab from the ammonium sulfate precipitate of the culture supernatant immobilised on a NiHC200M chip; hPD-1 (1-1024 nM) or mPD-1-Fc (4-1024 nM) as analyte, fourfold dilution series, no regeneration; HBS-EP pH 7.4, 25 °C; medians over the spots of a construct, KD = koff/kon
- assay_context: one partner purified
Record form. Attribute: Kd. Fill in for each entry.
Response body: numeric value in nM, unit text excluded.

Sample toripalimab Fab L.V30Y (Fab, V domains shown, as the heavy chain of Sm3; light chain of Sm3 with this change; numbers count from the chain's first residue; source: Brevibacillus, culture supernatant (ammonium sulfate precipitate); not shown: 6xHis, C-terminal, kept; 6xHN, C-terminal, kept) VH: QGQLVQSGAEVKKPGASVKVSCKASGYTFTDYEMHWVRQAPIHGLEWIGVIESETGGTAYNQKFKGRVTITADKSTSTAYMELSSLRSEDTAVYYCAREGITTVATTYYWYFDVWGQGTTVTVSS VL: DVVMTQSPLSLPVTLGQPASISCRSSQSIYHSNGNTYLEWYLQKPGQSPQLLIYKVSNRFSGVPDRFSGSGSGTDFTLKISRVEAEDVGVYYCFQGSHVPLTFGQGTKLEIK ; Kd observed: 0.91

Sample toripalimab Fab H.E33A (Fab, V domains shown, heavy chain of Sm3 with this change; numbers count from the chain's first residue; as the light chain of Sm3; source: Brevibacillus, culture supernatant (ammonium sulfate precipitate); not shown: 6xHis, C-terminal, kept; 6xHN, C-terminal, kept) VH: QGQLVQSGAEVKKPGASVKVSCKASGYTFTDYAMHWVRQAPIHGLEWIGVIESETGGTAYNQKFKGRVTITADKSTSTAYMELSSLRSEDTAVYYCAREGITTVATTYYWYFDVWGQGTTVTVSS VL: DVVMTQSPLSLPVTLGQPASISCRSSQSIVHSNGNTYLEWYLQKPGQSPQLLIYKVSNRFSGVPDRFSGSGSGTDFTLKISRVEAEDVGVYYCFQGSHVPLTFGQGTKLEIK ; Kd observed: 1.37

Sample toripalimab Fab H.E33Y (Fab, V domains shown, heavy chain of Sm3 with this change; numbers count from the chain's first residue; as the light chain of Sm3; source: Brevibacillus, culture supernatant (ammonium sulfate precipitate); not shown: 6xHis, C-terminal, kept; 6xHN, C-terminal, kept) VH: QGQLVQSGAEVKKPGASVKVSCKASGYTFTDYYMHWVRQAPIHGLEWIGVIESETGGTAYNQKFKGRVTITADKSTSTAYMELSSLRSEDTAVYYCAREGITTVATTYYWYFDVWGQGTTVTVSS VL: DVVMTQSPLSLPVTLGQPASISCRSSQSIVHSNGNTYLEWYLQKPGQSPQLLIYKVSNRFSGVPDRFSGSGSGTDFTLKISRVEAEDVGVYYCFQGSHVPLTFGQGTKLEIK ; Kd observed: 430
